# measurement target: human CD74, naturally expressed on cells (Raji, Daudi, M4A4, NCI-H747 cells; human tonsil tissue) (human) (UniProt P04233)
# assay: FACS on Daudi cells; mean of three experiments
Below, each of the binders is paired with its reported EC50 value.
State the answer as a number, implicitly in µg/mL.

• HuMab-CD74-011-vcMMAE (antibody, IgG1, V domains shown, drug-linker vcMMAE alkylated to the cysteines of the reduced antibody (DAR 3.8-3.9), Antibody-drug conjugate of HuMab-CD74-011 (IgG1,kappa); also called vcMMAE-conjugated HuMab-CD74-011) VH: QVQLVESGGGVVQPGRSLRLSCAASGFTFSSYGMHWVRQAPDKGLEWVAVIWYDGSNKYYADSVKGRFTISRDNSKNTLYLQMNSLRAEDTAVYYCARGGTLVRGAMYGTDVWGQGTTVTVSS VL: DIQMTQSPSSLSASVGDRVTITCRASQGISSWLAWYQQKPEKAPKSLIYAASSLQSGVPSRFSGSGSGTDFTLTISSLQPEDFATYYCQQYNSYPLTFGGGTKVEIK = 0.05
• HuMab-CD74-011-mcMMAF (antibody, IgG1, V domains shown, drug-linker mcMMAF alkylated to the cysteines of the reduced antibody (DAR 3.9 by HIC), Antibody-drug conjugate of HuMab-CD74-011 (IgG1,kappa)) VH: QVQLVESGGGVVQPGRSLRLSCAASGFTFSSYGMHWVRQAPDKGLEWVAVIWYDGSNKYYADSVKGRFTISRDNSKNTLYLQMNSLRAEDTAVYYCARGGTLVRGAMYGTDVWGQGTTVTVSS VL: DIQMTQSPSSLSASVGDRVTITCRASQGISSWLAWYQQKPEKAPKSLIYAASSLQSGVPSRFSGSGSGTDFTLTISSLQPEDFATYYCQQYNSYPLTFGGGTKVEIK = 0.05
• HuMab-CD74-005-vcMMAE (antibody, IgG1, V domains shown, drug-linker vcMMAE alkylated to the cysteines of the reduced antibody (DAR 3.9-4.0), Antibody-drug conjugate of HuMab-CD74-005 (IgG1,kappa); also called vcMMAE-conjugate of HuMab-CD74-005) VH: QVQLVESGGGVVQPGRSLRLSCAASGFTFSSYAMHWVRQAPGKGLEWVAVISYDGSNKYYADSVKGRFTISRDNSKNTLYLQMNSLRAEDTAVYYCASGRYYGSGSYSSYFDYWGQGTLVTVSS VL: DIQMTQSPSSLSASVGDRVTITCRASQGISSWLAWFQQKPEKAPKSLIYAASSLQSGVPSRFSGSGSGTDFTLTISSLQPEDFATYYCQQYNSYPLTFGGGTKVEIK = 0.26
• HuMab-CD74-011 (antibody, human IgG1, V domains shown, Human IgG1,kappa antibody produced transiently in HEK-293F cells; also called antibody 011) VH: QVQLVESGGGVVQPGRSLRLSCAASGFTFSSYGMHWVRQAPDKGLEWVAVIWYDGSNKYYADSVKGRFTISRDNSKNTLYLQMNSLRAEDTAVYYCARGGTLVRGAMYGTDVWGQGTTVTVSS VL: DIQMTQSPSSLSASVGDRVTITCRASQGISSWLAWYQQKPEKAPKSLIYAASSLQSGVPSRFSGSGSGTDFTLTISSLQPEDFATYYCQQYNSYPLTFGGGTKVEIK = 0.05

Please find the next binder below.
Fill in the blank: the reported EC50 of HuMab-CD74-005-mcMMAF (antibody, IgG1, V domains shown, drug-linker mcMMAF alkylated to the cysteines of the reduced antibody (DAR 3.9-4.0), Antibody-drug conjugate of HuMab-CD74-005 (IgG1,kappa); also called mcMMAF-conjugate of HuMab-CD74-005) VH: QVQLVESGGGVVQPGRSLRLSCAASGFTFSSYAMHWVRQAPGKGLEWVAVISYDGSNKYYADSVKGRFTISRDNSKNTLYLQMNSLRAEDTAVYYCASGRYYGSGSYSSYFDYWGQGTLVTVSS VL: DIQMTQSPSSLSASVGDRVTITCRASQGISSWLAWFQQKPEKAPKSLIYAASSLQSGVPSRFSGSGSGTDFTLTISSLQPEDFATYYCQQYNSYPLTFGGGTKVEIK is ____. 1.05
